AC50 tested on Progesterone receptor (Homo sapiens, UniProt P06401): recorded values; further: assay procedure not described here
Sequence (P06401 whole entry): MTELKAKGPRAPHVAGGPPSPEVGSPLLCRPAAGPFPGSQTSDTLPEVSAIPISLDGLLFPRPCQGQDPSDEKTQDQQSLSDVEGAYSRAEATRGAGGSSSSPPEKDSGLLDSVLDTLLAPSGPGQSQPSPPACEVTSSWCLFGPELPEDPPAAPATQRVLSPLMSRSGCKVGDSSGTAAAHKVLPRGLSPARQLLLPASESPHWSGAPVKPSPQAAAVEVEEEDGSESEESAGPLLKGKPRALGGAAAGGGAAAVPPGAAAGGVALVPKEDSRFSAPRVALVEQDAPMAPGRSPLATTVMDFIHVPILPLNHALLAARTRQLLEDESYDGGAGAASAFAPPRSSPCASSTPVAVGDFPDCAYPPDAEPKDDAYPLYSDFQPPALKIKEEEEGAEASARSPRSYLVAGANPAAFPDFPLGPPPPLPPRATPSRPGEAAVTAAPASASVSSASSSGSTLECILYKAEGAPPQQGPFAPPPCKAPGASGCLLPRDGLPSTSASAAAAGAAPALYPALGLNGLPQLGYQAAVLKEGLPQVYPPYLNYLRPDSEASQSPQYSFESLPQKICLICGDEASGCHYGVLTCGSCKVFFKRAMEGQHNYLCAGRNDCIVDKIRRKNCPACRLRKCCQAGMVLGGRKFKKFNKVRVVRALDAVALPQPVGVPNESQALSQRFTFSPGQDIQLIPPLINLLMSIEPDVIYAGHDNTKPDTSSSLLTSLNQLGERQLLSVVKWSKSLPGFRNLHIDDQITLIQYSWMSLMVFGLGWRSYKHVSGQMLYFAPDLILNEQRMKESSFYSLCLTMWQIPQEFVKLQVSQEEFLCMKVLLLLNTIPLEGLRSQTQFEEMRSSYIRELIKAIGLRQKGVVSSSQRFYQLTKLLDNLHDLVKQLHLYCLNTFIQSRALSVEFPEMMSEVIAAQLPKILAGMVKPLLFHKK

Compound: CC#CCn1c(N2CCC[C@@H](N)C2)nc2c1c(=O)n(Cc1nc(C)c3ccccc3n1)c(=O)n2C
AC50: > 30 µM

Compound: CNCC[C@H](Oc1cccc2ccccc12)c1cccs1
AC50: > 30 µM

Compound: CC(=O)OCC(CCn1cnc2cnc(N)nc21)COC(C)=O
AC50: > 30 µM

Compound: CCCCNc1ccc(C(=O)OCCN(C)C)cc1
AC50: > 30 µM

Compound: COc1ccnc(C[S+]([O-])c2nc3ccc(OC(F)F)cc3[nH]2)c1OC (stereo not drawn)
AC50: > 30 µM

Compound: COc1ccc(C(CN(C)C)C2(O)CCCCC2)cc1 (stereo not drawn)
AC50: > 30 µM

Compound: CN1C[C@H](C(=O)N[C@]2(C)O[C@@]3(O)[C@@H]4CCCN4C(=O)[C@H](Cc4ccccc4)N3C2=O)C[C@@H]2c3cccc4[nH]cc(c34)C[C@H]21 [DIHYDROERGOTAMINE]
AC50: > 30 µM

Compound: CCCC(C)(COC(N)=O)COC(=O)NC(C)C (stereo not drawn)
AC50: > 30 µM

====

- Study System: Endothelin receptor type B (Homo sapiens); further: assay procedure not described here
- Sequence (P24530 whole entry): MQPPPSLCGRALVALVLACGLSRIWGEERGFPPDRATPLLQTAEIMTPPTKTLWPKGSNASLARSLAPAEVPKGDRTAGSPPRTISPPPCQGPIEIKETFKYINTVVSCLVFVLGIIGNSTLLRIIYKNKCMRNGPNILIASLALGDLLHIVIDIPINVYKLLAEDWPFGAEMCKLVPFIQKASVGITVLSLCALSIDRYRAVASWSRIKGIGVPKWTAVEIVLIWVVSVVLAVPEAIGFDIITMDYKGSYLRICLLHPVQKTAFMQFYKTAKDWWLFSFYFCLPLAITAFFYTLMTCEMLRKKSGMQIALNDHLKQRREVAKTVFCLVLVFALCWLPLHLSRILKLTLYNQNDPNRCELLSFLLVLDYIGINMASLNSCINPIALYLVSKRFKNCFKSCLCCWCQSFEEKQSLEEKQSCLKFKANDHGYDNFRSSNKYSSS

Molecule: [H]/N=C(/N)N[C@H]1[C@H](O)[C@@H](O)[C@H](O[C@@H]2O[C@@H](C)[C@](O)(C=O)[C@H]2O[C@@H]2O[C@@H](CO)[C@H](O)[C@@H](O)[C@@H]2NC)[C@@H](N/C(N)=N\[H])[C@@H]1O
AC50: > 30 µM
//
Molecule: CN1C[C@H](C(=O)N[C@]2(C)O[C@@]3(O)[C@@H]4CCCN4C(=O)[C@H](Cc4ccccc4)N3C2=O)C[C@@H]2c3cccc4[nH]cc(c34)C[C@H]21 [DIHYDROERGOTAMINE]
AC50: > 30 µM
//
Molecule: CC(=O)OCC(CCn1cnc2cnc(N)nc21)COC(C)=O
AC50: > 30 µM

====

- Study System: UniProt:P08172
- Sequence (P08172 whole entry): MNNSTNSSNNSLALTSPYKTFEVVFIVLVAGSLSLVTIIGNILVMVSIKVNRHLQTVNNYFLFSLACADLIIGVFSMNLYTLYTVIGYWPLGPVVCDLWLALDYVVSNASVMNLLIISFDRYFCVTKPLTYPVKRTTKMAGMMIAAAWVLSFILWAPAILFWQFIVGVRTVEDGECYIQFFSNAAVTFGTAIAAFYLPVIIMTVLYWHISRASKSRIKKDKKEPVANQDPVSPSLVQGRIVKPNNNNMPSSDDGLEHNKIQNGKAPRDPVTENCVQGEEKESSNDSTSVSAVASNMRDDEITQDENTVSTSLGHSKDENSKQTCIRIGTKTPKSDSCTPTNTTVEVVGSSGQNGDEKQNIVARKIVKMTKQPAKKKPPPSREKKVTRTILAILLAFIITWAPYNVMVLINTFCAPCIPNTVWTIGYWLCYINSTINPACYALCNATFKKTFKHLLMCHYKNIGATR
- Type: functional, cell-based

Compound: COc1c(O[C@@H]2O[C@H](CO)[C@@H](O)[C@H](O)[C@H]2O)cc2c(c1OC)-c1ccc(SC)c(=O)cc1[C@@H](NC(C)=O)CC2 [THIOCOLCHICOSIDE]
AC50: > 30 µM

Compound: C#C[C@]1(O)CC[C@H]2[C@@H]3CCc4cc(OC)ccc4[C@H]3CC[C@@]21C
AC50: > 10 µM

Compound: CN(C)c1cc(CNCC(C)(C)C)c(O)c2c1C[C@H]1C[C@H]3[C@H](N(C)C)C(O)=C(C(N)=O)C(=O)[C@@]3(O)C(O)=C1C2=O
AC50: 24.3 µM

Compound: CC1(C)O[C@@H]2[C@@H](CO[C@@]3(COS(N)(=O)=O)OC(C)(C)O[C@@H]23)O1 [TOPIRAMATE]
AC50: > 10 µM

Compound: Clc1cccc(Cl)c1N=C1NCCN1
AC50: > 10 µM

Compound: CC(/C=C1\SC(=S)N(CC(=O)O)C1=O)=C\c1ccccc1
AC50: > 30 µM

Compound: CN1[C@@H]2CC[C@H]1C[C@@H](OC(=O)c1c[nH]c3ccccc13)C2
AC50: > 30 µM

Compound: CC(C)N(CCCCOCC(=O)NS(C)(=O)=O)c1cnc(-c2ccccc2)c(-c2ccccc2)n1
AC50: > 30 µM
